- Test system: Nucleic Acid
- MEASUREMENT_DESCRIPTION: Alkylation of DNA at 50 uM by gel shift assay
- Type: nucleic-acid assay
Active and inactive are the calls of the source. The rule behind the calls is not given here.
Outcomes: true (1) for active, false (0) for inactive

MOLECULE	LABEL
COc1cc2c(c3c1c(=O)c1c4ccccc4ccc1n3C)[C@@H](O)[C@@H](OC(=O)CC(C)C)C(C)(C)O2 (racemic)	true (1)
COc1cc2c(c3c1c(=O)c1c4ccccc4ccc1n3C)[C@@H](O)[C@@H](OC(=O)c1ccccc1)C(C)(C)O2 (racemic)	true (1)
CCC(=O)O[C@@H]1[C@H](O)c2c(cc(OC)c3c(=O)c4c5ccccc5ccc4n(C)c23)OC1(C)C (racemic)	true (1)
COc1cc2c(c3c1c(=O)c1c4ccccc4ccc1n3C)[C@@H](O)[C@@H](OC(C)=O)C(C)(C)O2 (racemic)	true (1)
COc1cc2c(c3c1c(=O)c1cc4ccccc4cc1n3C)[C@@H](OC(C)=O)[C@@H](OC(C)=O)C(C)(C)O2 (racemic)	true (1)
COc1cc2c(c3c1c(=O)c1c4ccccc4ccc1n3C)[C@@H](O)[C@@H](OC(=O)N(C)C)C(C)(C)O2 (racemic)	true (1)
C=CCCC(=O)O[C@@H]1[C@H](O)c2c(cc(OC)c3c(=O)c4c5ccccc5ccc4n(C)c23)OC1(C)C (racemic)	false (0)
CCN(CC)C(=O)O[C@@H]1c2c(cc(OC)c3c(=O)c4c5ccccc5ccc4n(C)c23)OC(C)(C)[C@@H]1OC(=O)N(CC)CC (racemic)	true (1)
COc1cc2c(c3nc4ccc5ccccc5c4c(OC)c13)[C@@H](OC(C)=O)[C@@H](OC(C)=O)C(C)(C)O2 (racemic)	false (0)
COc1cc2c(c3c1c(=O)c1c4ccccc4ccc1n3C)[C@@H](OC(C)=O)[C@@H](OC(C)=O)C(C)(C)O2 (racemic)	true (1)
COc1cc2c(c3c1c(=O)c1c4ccccc4ccc1n3C)[C@@H](O)[C@@H](O)C(C)(C)O2 (racemic)	false (0)
COc1cc2c(c3c1c(=O)c1c4ccccc4ccc1n3C)[C@@H](OC(C)=O)[C@@H](OC(=O)CC(C)C)C(C)(C)O2 (racemic)	true (1)
COc1cc2c(c3c1c(=O)c1c4ccccc4ccc1n3C)[C@H]1OC(=O)O[C@H]1C(C)(C)O2 (racemic)	false (0)

----------
Some compounds, each annotated with its measured Activity.
- Test system: L1210
- MEASUREMENT_DESCRIPTION: Cell cycle arrest in L1210 cell line by accumulation at S phase at 5 uM after 21 hrs
- Assay type: functional, Mus musculus

COMPOUND	ASSAYED_TARGET	Activity, %
CCC(=O)O[C@@H]1c2c(cc(OC)c3c(=O)c4c5ccccc5ccc4n(C)c23)OC(C)(C)[C@@H]1OC(=O)CC (racemic)	L1210	70
COc1cc2c(c3c1c(=O)c1c4ccccc4ccc1n3C)[C@@H](O)[C@@H](OC(C)=O)C(C)(C)O2 (racemic)	L1210	76
COc1cc2c(c3c1c(=O)c1c4ccccc4ccc1n3C)[C@@H](OC(C)=O)[C@@H](OC(=O)CC(C)C)C(C)(C)O2 (racemic)	L1210	76
COc1cc2c(c3c1c(=O)c1c4ccccc4ccc1n3C)[C@@H](O)[C@@H](OC(=O)CC(C)C)C(C)(C)O2 (racemic)	L1210	73
COc1cc2c(c3c1c(=O)c1c4ccccc4ccc1n3C)[C@@H](OC(C)=O)[C@@H](OC(C)=O)C(C)(C)O2 (racemic)	L1210	68

----------
- Tested on: KB 3-1
- MEASUREMENT_DESCRIPTION: Antiproliferative activity against human KB-3-1 cell line by MTT assay
- Assay type: functional, cell-based
pIC50: −log10 of the molar value.

COMPOUND	pIC50
COc1cc2c(c3nc4ccc5ccccc5c4c(OC)c13)[C@@H](OC(C)=O)[C@@H](OC(C)=O)C(C)(C)O2 (racemic)	5.14
CCC(=O)O[C@@H]1c2c(cc(OC)c3c(=O)c4c5ccccc5ccc4n(C)c23)OC(C)(C)[C@@H]1OC(=O)CC (racemic)	7.00
COc1cc2c(c3c1c(=O)c1c4ccccc4ccc1n3C)[C@@H](O)[C@@H](OC(=O)CC(C)C)C(C)(C)O2 (racemic)	6.70
COc1cc2c(c3c1c(=O)c1c4ccccc4ccc1n3C)[C@H]1OC(=O)O[C@H]1C(C)(C)O2 (racemic)	7.82

----------
- Test system: Nucleic Acid
- MEASUREMENT_DESCRIPTION: Alkylation of DNA at 50 uM by gel shift assay
- Type: nucleic-acid assay
Activity calls are given as the source filed them. No cut-off for these calls is given here.
ASSAY_ENDPOINT: Activity

COMPOUND	VALUE_MEASURED
CCC(=O)O[C@@H]1c2c(cc(OC)c3c(=O)c4c5ccccc5ccc4n(C)c23)OC(C)(C)[C@@H]1OC(=O)CC (racemic)	Active
COc1cc2c(c3nc4ccc5ccccc5c4c(O)c13)C(=O)C(O)C(C)(C)O2 (configuration not stated)	inactive
COc1cc2c(c3c1c(=O)c1c4ccccc4ccc1n3C)C(=O)[C@@H](OC(C)=O)C(C)(C)O2	inactive
C=CCCC(=O)O[C@@H]1c2c(cc(OC)c3c(=O)c4c5ccccc5ccc4n(C)c23)OC(C)(C)[C@@H]1OC(=O)CCC=C (racemic)	Active
C=CCCC(=O)O[C@@H]1[C@H](OC(C)=O)c2c(cc(OC)c3c(=O)c4c5ccccc5ccc4n(C)c23)OC1(C)C (racemic)	Active
COc1cc2c(c3c1c(=O)c1c4ccccc4ccc1n3C)[C@@H](OC(=O)CC(C)C)[C@@H](OC(=O)CC(C)C)C(C)(C)O2 (racemic)	Active
COc1cc2c(c3nc4ccc5ccccc5c4c(OC)c13)[C@@H](O)[C@@H](O)C(C)(C)O2 (racemic)	inactive

----------
- Test system: KB 3-1
- MEASUREMENT_DESCRIPTION: Antiproliferative activity against human KB-3-1 cell line by MTT assay
- Assay type: functional, cell-based
pIC50: −log10 of the molar value.

MOLECULE	pIC50
COc1cc2c(c3nc4ccc5ccccc5c4c(O)c13)C(=O)C(O)C(C)(C)O2 (centres undefined)	5.70
COc1cc2c(c3nc4ccc5ccccc5c4c(OC)c13)[C@@H](O)[C@@H](O)C(C)(C)O2 (racemic)	5.20
COc1cc2c(c3c1c(=O)c1c4ccccc4ccc1n3C)[C@@H](O)[C@@H](OC(=O)N(C)C)C(C)(C)O2 (racemic)	7.00
COc1cc2c(c3c1c(=O)c1c4ccccc4ccc1n3C)[C@@H](OC(C)=O)[C@@H](OC(=O)CC(C)C)C(C)(C)O2 (racemic)	7.00
CCN(CC)C(=O)O[C@@H]1c2c(cc(OC)c3c(=O)c4c5ccccc5ccc4n(C)c23)OC(C)(C)[C@@H]1OC(=O)N(CC)CC (racemic)	6.10
COc1cc2c(c3nc4ccc5ccccc5c4c(OC)c13)C=CC(C)(C)O2	4.48
C=CCCC(=O)O[C@@H]1[C@H](OC(C)=O)c2c(cc(OC)c3c(=O)c4c5ccccc5ccc4n(C)c23)OC1(C)C (racemic)	7.00
COc1cc2c(c3c1c(=O)c1c4ccccc4ccc1n3C)[C@@H](OC(C)=O)[C@@H](OC(C)=O)C(C)(C)O2 (racemic)	6.82
COc1cc2c(c3c1c(=O)c1c4ccccc4ccc1n3C)C=CC(C)(C)O2 [BENZO[A]ACRONYCINE]	5.07
COc1cc2c(c3c1c(=O)c1c4ccccc4ccc1n3C)C(=O)[C@@H](OC(C)=O)C(C)(C)O2	5.20
CCC(=O)O[C@@H]1[C@H](O)c2c(cc(OC)c3c(=O)c4c5ccccc5ccc4n(C)c23)OC1(C)C (racemic)	7.00
COc1cc2c(c3c1c(=O)c1cc4ccccc4cc1n3C)[C@@H](OC(C)=O)[C@@H](OC(C)=O)C(C)(C)O2 (racemic)	7.00
COc1cc2c(c3c1c(=O)c1c4ccccc4ccc1n3C)[C@@H](O)[C@@H](OC(C)=O)C(C)(C)O2 (racemic)	6.70
COc1cc2c(c3c1c(=O)c1c4ccccc4ccc1n3C)[C@@H](O)[C@@H](O)C(C)(C)O2 (racemic)	4.49
COc1cc2c(c3c1c(=O)c1c4ccccc4ccc1n3C)[C@@H](O)[C@@H](OC(=O)c1ccccc1)C(C)(C)O2 (racemic)	6.52
COc1cc2c(c3c1c(=O)c1ccccc1n3C)C=CC(C)(C)O2	5.43
COc1cc2c(c3c1c(=O)c1c4ccccc4ccc1n3C)[C@@H](OC(=O)CC(C)C)[C@@H](OC(=O)CC(C)C)C(C)(C)O2 (racemic)	6.82
C=CCCC(=O)O[C@@H]1c2c(cc(OC)c3c(=O)c4c5ccccc5ccc4n(C)c23)OC(C)(C)[C@@H]1OC(=O)CCC=C (racemic)	6.89
C=CCCC(=O)O[C@@H]1[C@H](O)c2c(cc(OC)c3c(=O)c4c5ccccc5ccc4n(C)c23)OC1(C)C (racemic)	6.60
